Origin of values: ChEMBL document CHEMBL4342404

target: UniProt P22303; experiment: Inhibition of human acetylcholinesterase by Ellman's method
Sequence (P22303 whole entry): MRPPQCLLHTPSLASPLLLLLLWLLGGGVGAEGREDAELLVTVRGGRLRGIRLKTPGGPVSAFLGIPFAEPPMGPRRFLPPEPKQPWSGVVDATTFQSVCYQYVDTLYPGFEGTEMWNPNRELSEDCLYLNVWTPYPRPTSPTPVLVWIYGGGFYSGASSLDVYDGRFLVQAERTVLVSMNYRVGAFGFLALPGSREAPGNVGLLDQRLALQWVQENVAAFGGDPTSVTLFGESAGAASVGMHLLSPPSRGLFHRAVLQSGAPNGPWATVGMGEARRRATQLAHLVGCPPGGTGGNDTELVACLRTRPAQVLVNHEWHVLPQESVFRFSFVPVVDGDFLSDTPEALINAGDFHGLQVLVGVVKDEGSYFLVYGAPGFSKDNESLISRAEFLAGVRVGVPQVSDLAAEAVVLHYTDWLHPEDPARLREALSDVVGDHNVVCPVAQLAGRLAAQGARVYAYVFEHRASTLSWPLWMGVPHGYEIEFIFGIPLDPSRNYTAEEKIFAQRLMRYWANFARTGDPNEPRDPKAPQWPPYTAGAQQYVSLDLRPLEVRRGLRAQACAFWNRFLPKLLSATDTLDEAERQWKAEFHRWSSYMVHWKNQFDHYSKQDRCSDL
measurement_name: pIC50
# pIC50 is unitless: minus log10 of the molar concentration; print number only

Task: Fill in the recorded pIC50 for this molecule, with UniProt P22303 as test system: `Cc1cc(=O)oc2ccc(OC/C=C/CCn3cnc4c(N5CCCCC5)ncnc43)cc12`
Result: 4.92

###

molecular target: Acetylcholinesterase (Electrophorus electricus, UniProt O42275); experiment: Inhibition of electric eel AChE using acetylthiocholine iodide as substrate incubated for 15 mins by Ellman's method
Sequence (O42275 whole entry): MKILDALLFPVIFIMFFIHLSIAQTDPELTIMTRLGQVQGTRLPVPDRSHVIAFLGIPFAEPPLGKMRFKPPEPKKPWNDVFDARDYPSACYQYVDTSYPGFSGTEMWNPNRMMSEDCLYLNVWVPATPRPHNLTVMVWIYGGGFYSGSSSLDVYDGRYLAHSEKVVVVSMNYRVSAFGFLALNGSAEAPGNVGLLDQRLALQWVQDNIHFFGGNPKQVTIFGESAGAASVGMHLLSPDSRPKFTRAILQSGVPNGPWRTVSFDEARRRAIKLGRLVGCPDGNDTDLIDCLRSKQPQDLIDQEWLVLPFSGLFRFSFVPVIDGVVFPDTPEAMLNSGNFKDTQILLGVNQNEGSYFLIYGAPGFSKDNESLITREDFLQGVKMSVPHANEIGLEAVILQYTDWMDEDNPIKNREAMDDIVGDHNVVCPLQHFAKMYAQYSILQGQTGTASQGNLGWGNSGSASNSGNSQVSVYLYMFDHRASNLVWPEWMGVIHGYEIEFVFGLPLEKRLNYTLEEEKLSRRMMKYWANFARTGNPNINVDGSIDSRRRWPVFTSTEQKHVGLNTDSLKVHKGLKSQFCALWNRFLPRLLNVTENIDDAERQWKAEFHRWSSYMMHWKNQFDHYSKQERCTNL
measurement_name: IC50
Your reply should be a number followed by the unit it is expressed in.

Task: Consider the molecule shown here: `CCN(CC)Cc1ccc(/C=C/c2cnc(C)c(O)c2CO)cc1O` What is its recorded IC50?
Result: 2.11 µM
